Reference source for all entries: paper PMC6042793

Target: S. pneumoniae sialidase activity (Streptococcus pneumoniae, UniProt P62575)
Sequence (P62575 54-1035): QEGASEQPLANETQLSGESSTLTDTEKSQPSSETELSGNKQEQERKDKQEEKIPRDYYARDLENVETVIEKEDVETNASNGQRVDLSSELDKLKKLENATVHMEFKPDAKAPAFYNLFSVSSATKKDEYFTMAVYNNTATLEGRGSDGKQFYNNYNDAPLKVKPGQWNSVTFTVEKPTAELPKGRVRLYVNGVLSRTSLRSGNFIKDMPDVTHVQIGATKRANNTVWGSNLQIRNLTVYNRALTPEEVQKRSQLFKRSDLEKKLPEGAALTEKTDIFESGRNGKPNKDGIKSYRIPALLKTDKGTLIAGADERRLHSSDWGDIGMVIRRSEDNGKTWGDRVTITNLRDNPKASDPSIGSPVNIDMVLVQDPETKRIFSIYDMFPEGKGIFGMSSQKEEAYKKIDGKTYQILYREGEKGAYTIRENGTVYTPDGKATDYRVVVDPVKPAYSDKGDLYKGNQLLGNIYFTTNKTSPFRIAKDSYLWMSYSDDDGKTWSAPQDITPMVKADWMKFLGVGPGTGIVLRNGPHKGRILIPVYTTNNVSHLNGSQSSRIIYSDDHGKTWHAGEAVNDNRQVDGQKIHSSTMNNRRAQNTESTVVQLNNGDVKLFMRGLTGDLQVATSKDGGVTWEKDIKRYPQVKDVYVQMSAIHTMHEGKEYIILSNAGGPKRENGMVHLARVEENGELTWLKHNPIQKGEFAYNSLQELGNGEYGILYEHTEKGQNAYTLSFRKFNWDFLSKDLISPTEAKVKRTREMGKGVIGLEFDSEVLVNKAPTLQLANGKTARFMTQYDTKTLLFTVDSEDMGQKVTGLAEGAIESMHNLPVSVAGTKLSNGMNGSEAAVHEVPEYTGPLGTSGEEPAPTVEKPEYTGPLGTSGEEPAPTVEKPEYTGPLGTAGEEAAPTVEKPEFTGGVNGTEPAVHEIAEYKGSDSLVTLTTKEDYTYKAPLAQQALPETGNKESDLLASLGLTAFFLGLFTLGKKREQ
Assay type: biochemical
measurement name: Test result in the BTP3-based filter method in the presence of NAI

> print(dat)
                                smiles.data     value
1  CCC(CC)[C@H](NC(C)=O)[C@@H]1[C@H](O)[C@@H](C(=O)O)C[C@H]1N=C(N)N  Positive
2  [H]/N=C(\N)N[C@H]1C=C(C(=O)O)O[C@@H]([C@H](OC)[C@H](O)CO)[C@@H]1NC(C)=O  Positive
3  CCOC(=O)C1=C[C@@H](OC(CC)CC)[C@H](NC(C)=O)[C@@H](N)C1         -
4  CC(=O)N[C@H]1[C@H]([C@H](O)[C@H](O)CO)OC(C(=O)O)=C[C@@H]1N=C(N)N  Positive

----------
Target: UniProt:P62575
Assay type: biochemical
Details: pH 6.5, 56°C 15 min
measurement name: NAI susceptibility in the BTP3-based filter method (fluorescence in the presence of NAI)

> print(dat)
                                smiles.data    study.target                value
1  CC(=O)N[C@H]1[C@H]([C@H](O)[C@H](O)CO)OC(C(=O)O)=C[C@@H]1N=C(N)N  UniProt:P62575  showed fluorescence
2  CCC(CC)[C@H](NC(C)=O)[C@@H]1[C@H](O)[C@@H](C(=O)O)C[C@H]1N=C(N)N  UniProt:P62575  showed fluorescence
3  [H]/N=C(\N)N[C@H]1C=C(C(=O)O)O[C@@H]([C@H](OC)[C@H](O)CO)[C@@H]1NC(C)=O  UniProt:P62575  showed fluorescence
